Data provenance: the Immune Epitope Database (IEDB)

# TARGET OF ASSAY: HLA-A*11:01
# ASSAY NOTES: IEDB peptide-MHC binding, purified MHC/competitive/fluorescence; bounds were set here for any values at or beyond the usual limits of such assays
# TEST SETTINGS: source organism: Sudan ebolavirus
pIC50: −log10 of the molar value.
MEASURED QUANTITY: pIC50

{"SEQ TEXT": "LGLRKRSRR", "MEASURED QUANTITY": "pIC50", "MEASURED RESULT": 4.18}

----------
# TARGET OF ASSAY: HLA-B*27:05
# ASSAY NOTES: IEDB peptide-MHC binding, purified MHC/direct/fluorescence; filed as Kd, often an IC50 or EC50 that approximates it; bounds were set here for any values at or beyond the usual limits of such assays
# TEST SETTINGS: source organism: Burkholderia mallei
pKd: −log10 of the molar value.

{"SEQ TEXT": "ISDSAQNMM", "pKd": "≤ 4.70"}

----------
# TARGET OF ASSAY: HLA-B*07:02
# ASSAY NOTES: IEDB peptide-MHC binding, purified MHC/direct/fluorescence; filed as Kd, often an IC50 or EC50 that approximates it; bounds were set here for any values at or beyond the usual limits of such assays
# TEST SETTINGS: source organism: Yersinia pestis
pKd: −log10 of the molar value.
MEASURED QUANTITY: pKd

{"SEQ TEXT": "YGIPFPGSL", "MEASURED RESULT": 5.01}

----------
# TARGET OF ASSAY: HLA-A*32:07
# ASSAY NOTES: IEDB peptide-MHC binding, purified MHC/competitive/fluorescence; filed as Kd, often an IC50 or EC50 that approximates it; bounds were set here for any values at or beyond the usual limits of such assays
# TEST SETTINGS: source organism: Rickettsia felis URRWXCal2
MEASURED QUANTITY: Kd (nM)

{"SEQ TEXT": "FMYALSRAF", "MEASURED RESULT": 493}

----------
# TARGET OF ASSAY: HLA-A*03:01
# ASSAY NOTES: IEDB peptide-MHC binding, purified MHC/competitive/radioactivity; filed as Kd, often an IC50 or EC50 that approximates it; bounds were set here for any values at or beyond the usual limits of such assays
# TEST SETTINGS: source organism: Vaccinia virus WR
pKd: −log10 of the molar value.
MEASURED QUANTITY: pKd

{"SEQ TEXT": "PIYSHTERDK", "MEASURED QUANTITY": "pKd", "COMPARISON SIGN": "=", "MEASURED RESULT": 6.03}
{"SEQ TEXT": "SLIKFISDNK", "MEASURED QUANTITY": "pKd", "COMPARISON SIGN": "=", "MEASURED RESULT": 7.83}
{"SEQ TEXT": "YTCEDNTGIK", "MEASURED QUANTITY": "pKd", "COMPARISON SIGN": "≤", "MEASURED RESULT": 4.53}
{"SEQ TEXT": "IIGHIGHHY", "MEASURED QUANTITY": "pKd", "COMPARISON SIGN": "=", "MEASURED RESULT": 5.19}
{"SEQ TEXT": "ELGIAIFNNR", "MEASURED QUANTITY": "pKd", "COMPARISON SIGN": "=", "MEASURED RESULT": 6.02}
{"SEQ TEXT": "RSTIFDIVSK", "MEASURED QUANTITY": "pKd", "COMPARISON SIGN": "=", "MEASURED RESULT": 7.09}
{"SEQ TEXT": "KVLAARLKR", "MEASURED QUANTITY": "pKd", "COMPARISON SIGN": "=", "MEASURED RESULT": 6.20}
{"SEQ TEXT": "AISAVYFKAK", "MEASURED QUANTITY": "pKd", "COMPARISON SIGN": "=", "MEASURED RESULT": 8.09}
{"SEQ TEXT": "QSVLCVKKFY", "MEASURED QUANTITY": "pKd", "COMPARISON SIGN": "=", "MEASURED RESULT": 5.86}
{"SEQ TEXT": "PLFHGGEPIK", "MEASURED QUANTITY": "pKd", "COMPARISON SIGN": "=", "MEASURED RESULT": 4.74}
{"SEQ TEXT": "LSFSNTIQSY", "MEASURED QUANTITY": "pKd", "COMPARISON SIGN": "=", "MEASURED RESULT": 5.13}
{"SEQ TEXT": "LLSINSSFY", "MEASURED QUANTITY": "pKd", "COMPARISON SIGN": "=", "MEASURED RESULT": 6.01}
{"SEQ TEXT": "EFVMCLEAK", "MEASURED QUANTITY": "pKd", "COMPARISON SIGN": "≤", "MEASURED RESULT": 4.27}
{"SEQ TEXT": "LTDTEYRAR", "MEASURED QUANTITY": "pKd", "COMPARISON SIGN": "≤", "MEASURED RESULT": 4.11}
{"SEQ TEXT": "NMKQCTNDIY", "MEASURED QUANTITY": "pKd", "COMPARISON SIGN": "=", "MEASURED RESULT": 6.68}
{"SEQ TEXT": "FLLRHYYNKR", "MEASURED QUANTITY": "pKd", "COMPARISON SIGN": "=", "MEASURED RESULT": 5.74}
{"SEQ TEXT": "RARFIGGYIK", "MEASURED QUANTITY": "pKd", "COMPARISON SIGN": "=", "MEASURED RESULT": 6.20}
{"SEQ TEXT": "YLKNYKNFDY", "MEASURED QUANTITY": "pKd", "COMPARISON SIGN": "=", "MEASURED RESULT": 5.39}
{"SEQ TEXT": "FIRIIRPDY", "MEASURED QUANTITY": "pKd", "COMPARISON SIGN": "≤", "MEASURED RESULT": 4.11}
{"SEQ TEXT": "YFSFKKCLVY", "MEASURED QUANTITY": "pKd", "COMPARISON SIGN": "=", "MEASURED RESULT": 7.48}
{"SEQ TEXT": "TSKTTILSK", "MEASURED QUANTITY": "pKd", "COMPARISON SIGN": "=", "MEASURED RESULT": 5.34}

----------
# TARGET OF ASSAY: HLA-A*24:02
# ASSAY NOTES: IEDB peptide-MHC binding, purified MHC/direct/fluorescence; filed as Kd, often an IC50 or EC50 that approximates it; bounds were set here for any values at or beyond the usual limits of such assays
# TEST SETTINGS: source organism: Influenza A virus (A/chicken/Vietnam/5/2003(H5N1))
pKd: −log10 of the molar value.

{"SEQ TEXT": "RVDKLTQGR", "TARGET OF ASSAY": "HLA-A*24:02", "pKd": "≤ 4.70"}

----------
# TARGET OF ASSAY: HLA-A*02:03
# ASSAY NOTES: IEDB peptide-MHC binding, purified MHC/direct/fluorescence; filed as Kd, often an IC50 or EC50 that approximates it; bounds were set here for any values at or beyond the usual limits of such assays
# TEST SETTINGS: source organism: Zaire ebolavirus
pKd: −log10 of the molar value.

{"SEQ TEXT": "RDRFKRTSF", "pKd": "≤ 4.70"}
{"SEQ TEXT": "KEGKLQCRI", "pKd": "≤ 4.70"}
{"SEQ TEXT": "HPLARTAKV", "pKd": "≤ 4.70"}

----------
# TARGET OF ASSAY: HLA-B*44:02
# ASSAY NOTES: IEDB peptide-MHC binding, purified MHC/competitive/radioactivity; filed as Kd, often an IC50 or EC50 that approximates it; bounds were set here for any values at or beyond the usual limits of such assays
# TEST SETTINGS: source organism: SARS coronavirus Tor2

{"SEQ TEXT": "YEQVVMDYL", "COMPARISON SIGN": "=", "Kd [nM]": 371}
{"SEQ TEXT": "AEGSRGGSQA", "COMPARISON SIGN": "=", "Kd [nM]": 8480}
{"SEQ TEXT": "AEAAVKPLL", "COMPARISON SIGN": "=", "Kd [nM]": 60.8}
{"SEQ TEXT": "QELGHEDLM", "COMPARISON SIGN": "=", "Kd [nM]": 15400}
{"SEQ TEXT": "REFLTRNPAW", "COMPARISON SIGN": "=", "Kd [nM]": 4.02}
{"SEQ TEXT": "QEAYEQAVA", "COMPARISON SIGN": "=", "Kd [nM]": 17300}
{"SEQ TEXT": "SEYKGPVTDV", "COMPARISON SIGN": "=", "Kd [nM]": 17100}
{"SEQ TEXT": "AEVVKLPSRY", "COMPARISON SIGN": "=", "Kd [nM]": 144}
{"SEQ TEXT": "DEDDSEPVL", "COMPARISON SIGN": "≥", "Kd [nM]": 38300}
{"SEQ TEXT": "YENAFLPFT", "COMPARISON SIGN": "=", "Kd [nM]": 1650}
{"SEQ TEXT": "STFVSAARQG", "COMPARISON SIGN": "=", "Kd [nM]": 237}
{"SEQ TEXT": "KDCVMYASAL", "COMPARISON SIGN": "=", "Kd [nM]": 10700}
